# System: ALEXA-594-labeled rabbit anti-human IgG Fc-specific monoclonal (594-RAH) (rabbit)
# protocol.summary: FRET titration
# protocol.conditions: aptamer titrated into 200 nM RAH-594; apparent Kd; ITC: PBS (10 mM phosphate, 2.7 mM KCl, 137 mM NaCl, pH 7.4), 25 C; FRET: Ex 550 nm, Em 620/670 nm, titration buffer not stated
readout.label: pKd
Keep in mind that pKd stands for -log10 of concentration in molar terms.

Ask | Return pKd for the following sequence: CCAACCACACATCCTTCCATCGACATGGACCCACCGTTCC [AptaShield DNA aptamer]
Reply | 7.35

====

# Test system: purified whole IgG from rabbit serum (polyclonal) (rabbit)
# protocol.summary: ITC
# protocol.conditions: unlabeled IgG; 80 uM aptamer into 2.5 uM IgG; ITC: PBS (10 mM phosphate, 2.7 mM KCl, 137 mM NaCl, pH 7.4), 25 C; FRET: Ex 550 nm, Em 620/670 nm, titration buffer not stated
readout.label: pKd
Keep in mind that pKd stands for -log10 of concentration in molar terms.

Ask | Please tell me the measured pKd for CCAACCACACATCCTTCCATCGACATGGACCCACCGTTCC [AptaShield DNA aptamer] ; system: purified whole IgG from rabbit serum (polyclonal) (rabbit).
Reply | 6.05

====

# System: rabbit anti-human IgG Fc-specific monoclonal (RAH) (rabbit)
# protocol.summary: ITC
# protocol.conditions: unlabeled IgG; 80 uM aptamer into 2.5 uM IgG; ITC: PBS (10 mM phosphate, 2.7 mM KCl, 137 mM NaCl, pH 7.4), 25 C; FRET: Ex 550 nm, Em 620/670 nm, titration buffer not stated
readout.label: pKd
Keep in mind that pKd stands for -log10 of concentration in molar terms.

Ask | Return pKd for the following sequence: CCAACCACACATCCTTCCATCGACATGGACCCACCGTTCC [AptaShield DNA aptamer]
Reply | 6.65

====

# System: ALEXA-594-labeled rabbit anti-human IgG Fc-specific monoclonal (594-RAH) (rabbit)
# protocol.summary: FRET titration
# protocol.conditions: RAH-594 titrated into 200 nM aptamer; apparent Kd; ITC: PBS (10 mM phosphate, 2.7 mM KCl, 137 mM NaCl, pH 7.4), 25 C; FRET: Ex 550 nm, Em 620/670 nm, titration buffer not stated
readout.label: pKd
Keep in mind that pKd stands for -log10 of concentration in molar terms.

Ask | Return pKd for the following sequence: CCAACCACACATCCTTCCATCGACATGGACCCACCGTTCC [AptaShield DNA aptamer]
Reply | 7.02
